- System Name: MBP-FoxP3dN (Mus musculus, UniProt Q99JB6 188-423)
- Sequence: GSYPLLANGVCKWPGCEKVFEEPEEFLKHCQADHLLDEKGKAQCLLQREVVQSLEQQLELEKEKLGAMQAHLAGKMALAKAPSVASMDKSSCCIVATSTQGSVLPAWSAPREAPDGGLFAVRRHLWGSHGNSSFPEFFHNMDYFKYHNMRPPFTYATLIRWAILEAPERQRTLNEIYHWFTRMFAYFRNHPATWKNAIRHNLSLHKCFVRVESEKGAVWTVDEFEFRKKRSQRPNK
- Assay Explanation: PD-seq (MBP pull-down with sequencing); 20 mM Tris-HCl pH 7.5, 100 mM NaCl, 1.5 mM MgCl2, 0.4 uM protein, 0.1 uM dsDNA library, 30 min, room temperature, amylose pull-down; high values mean tight binding
- Study Conditions: protein: recombinant; tags: His6-MBP; chain copies: 2; dsDNA, one strand shown
The full ranking holds about 16,000 sequences; the median of “rpm ratio (pull-down/input)” is about 0.5, and the highest 2% start at about 5.5. Many of the other results were omitted from the sample, so the highest values are more common in it than they were.
Let's look at some sequences and their measured binding signal.
Quantity: binding signal

[
  {
    "Sequence Code": "GATGATTGTTCTCCCAGCTGATGAATTGGTGAGATCGAGTAAACAAATTTTCCTAATCTTTCTGTTCAAGCGCCATCTAC",
    "Quantity": "binding signal",
    "Val": "0.341 RPM ratio (pull-down/input)"
  },
  {
    "Sequence Code": "GATGATTGTTCTCCCAGCTGATGAATTTGCCCACTCGAGTAAACAAATTTTCCTAATCTTTCTGTTCAAGCGCCATCTAC",
    "Quantity": "binding signal",
    "Val": "0.555 RPM ratio (pull-down/input)"
  },
  {
    "Sequence Code": "GATGATTGTTCTCCCAGCTGATGAATTGGTGTTGTCGAGTAAACAAATTTTCCTAATCTTTCTGTTCAAGCGCCATCTAC",
    "Quantity": "binding signal",
    "Val": "3.18 RPM ratio (pull-down/input)"
  },
  {
    "Sequence Code": "GATGATTGTTCTCCCAGCTGATGAATTGGTCTCTTCGAGTAAACAAATTTTCCTAATCTTTCTGTTCAAGCGCCATCTAC",
    "Quantity": "binding signal",
    "Val": "0.388 RPM ratio (pull-down/input)"
  },
  {
    "Sequence Code": "GATGATTGTTCTCCCAGCTGATGAATTTCTTCACTCGAGTAAACAAATTTTCCTAATCTTTCTGTTCAAGCGCCATCTAC",
    "Quantity": "binding signal",
    "Val": "0.269 RPM ratio (pull-down/input)"
  },
  {
    "Sequence Code": "GATGATTGTTCTCCCAGCTGATGAATTGCGCCACTCGAGTAAACAAATTTTCCTAATCTTTCTGTTCAAGCGCCATCTAC",
    "Quantity": "binding signal",
    "Val": "7.19 RPM ratio (pull-down/input)"
  },
  {
    "Sequence Code": "GATGATTGTTCTCCCAGCTGATGAATTAGCTAAGTCGAGTAAACAAATTTTCCTAATCTTTCTGTTCAAGCGCCATCTAC",
    "Quantity": "binding signal",
    "Val": "0.231 RPM ratio (pull-down/input)"
  },
  {
    "Sequence Code": "GATGATTGTTCTCCCAGCTGATGAATTAATTGTCTCGAGTAAACAAATTTTCCTAATCTTTCTGTTCAAGCGCCATCTAC",
    "Quantity": "binding signal",
    "Val": "3.16 RPM ratio (pull-down/input)"
  },
  {
    "Sequence Code": "GATGATTGTTCTCCCAGCTGATGAATTCGGACCATCGAGTAAACAAATTTTCCTAATCTTTCTGTTCAAGCGCCATCTAC",
    "Quantity": "binding signal",
    "Val": "0.399 RPM ratio (pull-down/input)"
  },
  {
    "Sequence Code": "GATGATTGTTCTCCCAGCTGATGAATTCAACACCTCGAGTAAACAAATTTTCCTAATCTTTCTGTTCAAGCGCCATCTAC",
    "Quantity": "binding signal",
    "Val": "0.553 RPM ratio (pull-down/input)"
  },
  {
    "Sequence Code": "GATGATTGTTCTCCCAGCTGATGAATTAGTCTTATCGAGTAAACAAATTTTCCTAATCTTTCTGTTCAAGCGCCATCTAC",
    "Quantity": "binding signal",
    "Val": "0.725 RPM ratio (pull-down/input)"
  },
  {
    "Sequence Code": "GATGATTGTTCTCCCAGCTGATGAATTCGTGGTTTCGAGTAAACAAATTTTCCTAATCTTTCTGTTCAAGCGCCATCTAC",
    "Quantity": "binding signal",
    "Val": "1.35 RPM ratio (pull-down/input)"
  },
  {
    "Sequence Code": "GATGATTGTTCTCCCAGCTGATGAATTTTTGCACTCGAGTAAACAAATTTTCCTAATCTTTCTGTTCAAGCGCCATCTAC",
    "Quantity": "binding signal",
    "Val": "0.699 RPM ratio (pull-down/input)"
  },
  {
    "Sequence Code": "GATGATTGTTCTCCCAGCTGATGAATTAAGTCCGTCGAGTAAACAAATTTTCCTAATCTTTCTGTTCAAGCGCCATCTAC",
    "Quantity": "binding signal",
    "Val": "0.307 RPM ratio (pull-down/input)"
  },
  {
    "Sequence Code": "GATGATTGTTCTCCCAGCTGATGAATTGACTATGTCGAGTAAACAAATTTTCCTAATCTTTCTGTTCAAGCGCCATCTAC",
    "Quantity": "binding signal",
    "Val": "0.449 RPM ratio (pull-down/input)"
  }
]

---

- System Name: MBP-FoxP3dN (Mus musculus, UniProt Q99JB6 188-423)
- Sequence: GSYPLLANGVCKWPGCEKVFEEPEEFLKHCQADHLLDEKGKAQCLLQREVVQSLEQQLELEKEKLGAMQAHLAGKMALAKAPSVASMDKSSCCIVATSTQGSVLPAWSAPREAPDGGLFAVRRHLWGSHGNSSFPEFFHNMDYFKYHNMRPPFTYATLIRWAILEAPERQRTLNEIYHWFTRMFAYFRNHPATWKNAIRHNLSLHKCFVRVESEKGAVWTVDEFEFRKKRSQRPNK
- Assay Explanation: PD-seq (MBP pull-down with sequencing); 20 mM Tris-HCl pH 7.5, 100 mM NaCl, 1.5 mM MgCl2, 0.4 uM protein, 0.1 uM dsDNA library, 30 min, room temperature, amylose pull-down; high values mean tight binding
- Study Conditions: protein: recombinant; tags: His6-MBP; chain copies: 2; dsDNA, one strand shown
The full ranking holds about 16,000 sequences; the median of “rpm ratio (pull-down/input)” is about 0.5, and the highest 2% start at about 5.5. This is one part of a sample in which the highest values are shown more often than they occur.
Let's look at some sequences and their measured binding signal.

[
  {
    "Sequence Code": "GATGATTGTTCTCCCAGCTGATGAATTGCGGGGGTCGAGTAAACAAATTTTCCTAATCTTTCTGTTCAAGCGCCATCTAC",
    "binding signal": "0.984 RPM ratio (pull-down/input)"
  },
  {
    "Sequence Code": "GATGATTGTTCTCCCAGCTGATGAATTGTGCCGATCGAGTAAACAAATTTTCCTAATCTTTCTGTTCAAGCGCCATCTAC",
    "binding signal": "1.02 RPM ratio (pull-down/input)"
  },
  {
    "Sequence Code": "GATGATTGTTCTCCCAGCTGATGAATTGTAGTTCTCGAGTAAACAAATTTTCCTAATCTTTCTGTTCAAGCGCCATCTAC",
    "binding signal": "1.39 RPM ratio (pull-down/input)"
  },
  {
    "Sequence Code": "GATGATTGTTCTCCCAGCTGATGAATTGCGCATGTCGAGTAAACAAATTTTCCTAATCTTTCTGTTCAAGCGCCATCTAC",
    "binding signal": "6.5 RPM ratio (pull-down/input)"
  },
  {
    "Sequence Code": "GATGATTGTTCTCCCAGCTGATGAATTCACGTCATCGAGTAAACAAATTTTCCTAATCTTTCTGTTCAAGCGCCATCTAC",
    "binding signal": "0.59 RPM ratio (pull-down/input)"
  },
  {
    "Sequence Code": "GATGATTGTTCTCCCAGCTGATGAATTTATACGTTCGAGTAAACAAATTTTCCTAATCTTTCTGTTCAAGCGCCATCTAC",
    "binding signal": "0.886 RPM ratio (pull-down/input)"
  },
  {
    "Sequence Code": "GATGATTGTTCTCCCAGCTGATGAATTTCATAGTTCGAGTAAACAAATTTTCCTAATCTTTCTGTTCAAGCGCCATCTAC",
    "binding signal": "0.583 RPM ratio (pull-down/input)"
  }
]

Where these numbers come from: paper PMC12820563
